# credit: BigSolDB 2.1

protocol.conditions: in ethanol, 318.15 K
test.readout: solubility (mole fraction)

-- ask What solubility (mole fraction) value was documented for this molecule, `O=[N+]([O-])c1ccc(Oc2ccc([N+](=O)[O-])cc2)cc1` ?
-- reply 0.00124

* * *

protocol.conditions: in isopropanol, 318.15 K
test.readout: solubility (mole fraction)
The answer should be written as a number, with no unit following it.

-- ask Which value of solubility (mole fraction) has been reported for `O=[N+]([O-])c1ccc(Oc2ccc([N+](=O)[O-])cc2)cc1` in the records?
-- reply 0.000996

* * *

protocol.conditions: in 2-methoxyethanol, 308.15 K
test.readout: solubility (mole fraction)
Answer using only a numeral; do not append any unit.

-- ask What does the data say about its solubility (mole fraction)? Entry: `O=[N+]([O-])c1ccc(Oc2ccc([N+](=O)[O-])cc2)cc1`
-- reply 0.0131

* * *

protocol.conditions: in 1-methoxy-2-propanol, 318.15 K
test.readout: solubility (mole fraction)
Field format: numeric only.

-- ask Quick one: solubility (mole fraction) of `O=[N+]([O-])c1ccc(Oc2ccc([N+](=O)[O-])cc2)cc1` ?
-- reply 0.0162

* * *

protocol.conditions: in DMAc, 318.15 K
test.readout: solubility (mole fraction)
Give the figure by itself; no unit, no explanation.

-- ask What value of solubility (mole fraction) has been reported for the following compound? `O=[N+]([O-])c1ccc(Oc2ccc([N+](=O)[O-])cc2)cc1`
-- reply 0.164

* * *

protocol.conditions: in 1,4-dioxane, 293.15 K
test.readout: solubility (mole fraction)
Respond using a number only.

-- ask Need solubility (mole fraction) of `O=[N+]([O-])c1ccc(Oc2ccc([N+](=O)[O-])cc2)cc1` , thanks.
-- reply 0.0409

* * *

protocol.conditions: in DMAc, 298.15 K
test.readout: solubility (mole fraction)

-- ask What does the record list as solubility (mole fraction) for `O=[N+]([O-])c1ccc(Oc2ccc([N+](=O)[O-])cc2)cc1` ?
-- reply 0.103

* * *

protocol.conditions: in anisole, 318.15 K
test.readout: solubility (mole fraction)
// print number alone

-- ask Param item = `O=[N+]([O-])c1ccc(Oc2ccc([N+](=O)[O-])cc2)cc1` ; retrieve measured solubility (mole fraction).
-- reply 0.0746

* * *

protocol.conditions: in DMAc, 323.15 K
test.readout: solubility (mole fraction)
Form: value (number only, do not type unit).

-- ask Can you share its solubility (mole fraction)? I mean this compound: `O=[N+]([O-])c1ccc(Oc2ccc([N+](=O)[O-])cc2)cc1`
-- reply 0.184

* * *

protocol.conditions: in DMAc, 303.15 K
test.readout: solubility (mole fraction)

-- ask Data request, read-out solubility (mole fraction), for `O=[N+]([O-])c1ccc(Oc2ccc([N+](=O)[O-])cc2)cc1`
-- reply 0.115

* * *

protocol.conditions: in ethyl acetate, 283.15 K
test.readout: solubility (mole fraction)
# answer = number (no unit)

-- ask Quick one: solubility (mole fraction) for `O=[N+]([O-])c1ccc(Oc2ccc([N+](=O)[O-])cc2)cc1` ?
-- reply 0.0133

* * *

protocol.conditions: in 1-methoxy-2-propanol, 288.15 K
test.readout: solubility (mole fraction)
Give your answer as a number; write no unit.

-- ask Param item = `O=[N+]([O-])c1ccc(Oc2ccc([N+](=O)[O-])cc2)cc1` ; retrieve measured solubility (mole fraction).
-- reply 0.00657
